# measurement description: ATG_E_Box_CIS: Attagene CIS-FACTORIAL HepG2 Assay for human Enhancer Box (E-box) (AID 2282936)
# condition summary: HepG2 E-box cis-reporter transcription, actives raise or lower the signal
The source made the active and inactive calls. The calls were made as follows: active = hit-call score of the fitted dose curve at least 0.9, where 1 is the maximum; inactive = score below 0.9.
Outcomes: active, inactive

                                    compound  qualitative_label
 0                                  C=COCCCC           inactive
 1         O=C(Cl)c1cc(C(=O)Cl)cc(C(=O)Cl)c1             active
 2  CO[Si](CCC1CCC2OC2C1)(OC)OC (configuration not stated)           inactive
 3                Cc1cccc(OCCOc2cccc(C)c2)c1           inactive
 4                                 O=C1CCCC1           inactive
 5  C=C1[C@H]2CC[C@@H]3[C@H]2C(C)(C)CCC[C@]13C           inactive
 6  c1cc(C(c2ccc(OCC3CO3)cc2)C(c2ccc(OCC3CO3)cc2)c2ccc(OCC3CO3)cc2)ccc1OCC1CO1 (configuration not stated)           inactive
 7    CCCCNc1ccc(NCCCC)c2c1C(=O)c1ccccc1C2=O           inactive
 8                  CCOC(=O)CC(C(C)=O)C(C)=O           inactive
 9   O=C1Nc2ccccc2C1(c1ccc(O)cc1)c1ccc(O)cc1             active
10                            O=C1C=CC(=O)O1           inactive
11  CCOC(=O)c1ccccc1C(=C1C=C(Br)C(=O)C(Br)=C1)c1cc(Br)c(O)c(Br)c1             active
12              CC(C)(C)c1n[nH]c(=O)n(N)c1=O           inactive
13                        CC(=O)Oc1ccc(C)cc1           inactive
14                   CC(C)COC(=O)C=Cc1ccccc1           inactive
15                        CCO[Si](C)(OCC)OCC           inactive
16  CC(C)(c1cc(Br)c(OCCO)c(Br)c1)c1cc(Br)c(OCCO)c(Br)c1           inactive
17  O=C(Nc1ccccc1SSc1ccccc1NC(=O)c1ccccc1)c1ccccc1           inactive
18              O=C(c1ccc(O)cc1)c1ccc(O)cc1O           inactive
19                      C=CC(=O)OCCOC(=O)C=C             active
20                  O=[N+]([O-])c1ccc(CO)cc1           inactive
21                      CCCCCCCCCCCCCCCCCC#N           inactive
22            CCCCC/C=C\C/C=C\CCCCCCCC(=O)OC           inactive
23             CCCCCCCC/C=C\CCCCCCCC(=O)OCCO           inactive
24  C=CC(C)(CCC=C(C)C)OC(=O)CC(C)C (configuration not stated)           inactive
25                       CC(C)(C)c1ccc(N)cc1           inactive
26                   CC(=O)Oc1ccc(C(C)=O)cc1           inactive
27  O=S(=O)(O)c1cc(S(=O)(=O)O)c2ccc3c(S(=O)(=O)O)cc(S(=O)(=O)O)c4ccc1c2c43           inactive
28                             CCCOCCOCCOCCO           inactive
29                     O=C1CCCCCCCCCCCCCCCO1           inactive
30                Cn1c(=O)[nH]c2ncn(C)c2c1=O           inactive
31  CCCCC(CC)COC(=O)c1ccccc1O (configuration not stated)           inactive
32                          CCCCCCCOC(=O)CCC           inactive
33  C=CC(=O)OCC(Br)CBr (configuration not stated)             active
34               C=CC(=O)NC(C)(C)CS(=O)(=O)O           inactive
35       CCc1c(C(=O)O)c(=O)cnn1-c1ccc(Cl)cc1           inactive
36                            CCCCCC/C=C/C=O           inactive
37                        N#CCc1ccc(Cl)cc1Cl           inactive
38                    c1ccc2c(c1)ccc1ncccc12           inactive
39                            C=CC=CC=CCCCCC           inactive
40  C[C@]12C=CC(=O)C=C1CC[C@@H]1[C@@H]2[C@@H](O)C[C@@]2(C)[C@H]1CC[C@]2(O)C(=O)CO           inactive
41                        CC(C)c1ccc(C=O)cc1           inactive
42                                     OCCCS           inactive
43                   S=C(NC1CCCCC1)NC1CCCCC1           inactive
44  CCCCCCCCO[C@@H]1O[C@H](CO)[C@@H](O)[C@H](O)[C@H]1O           inactive
45              C=C(C)c1cccc(C(C)(C)N=C=O)c1           inactive
46  CCC(C)(C)C1CCCCC1OC(C)=O (configuration not stated)           inactive
47                    C=C(C)[C@H]1CC=C(C)CC1           inactive
48      O=C1c2cccc(O)c2C(=O)c2c(O)cc(CO)cc21             active
49  CCCCCCOC(=O)C(C)CC (configuration not stated)           inactive
50                 Nc1ccc(N=Nc2ccccc2)c(N)n1             active
51                            O=C1CCCC(=O)O1           inactive
52  O=C(OCC1CCC2OC2C1)C1CCC2OC2C1 (configuration not stated)           inactive
53               CC(C)(C)C(=O)CCc1ccc(Cl)cc1           inactive
54                               SCCc1cnccn1           inactive
55         FC(F)=C(F)OC(F)(F)C(F)(F)C(F)(F)F           inactive
56        FC(F)(F)C(=NOCC1OCCO1)c1ccc(Cl)cc1           inactive
